Test system: L1210 leukemia ip in BDF1 mice, survival T/C
MEASUREMENT_NOTES: NCI In Vivo Anticancer Drug Screen. Data for tumor model L1210 Leukemia (intraperitoneal) in B6D2F1 (BDF1) mice
DETAILS: endpoint: mean survival time; dose: 200.0 mg/kg/injection; schedule: Q01DX001 (ip); vehicle: saline with Tween-80; higher = longer survival
Toxic doses and inconclusive results are not listed.
MEASURED_METRIC: T/C

C=CCCCCCCCCCC(CCCCC)C(=O)O (centres undefined) ... 94 % of control

T/C for `CCOC(=O)c1ccc(NC(=O)Nc2cccc(O)c2)cc1` is 98 % of control

T/C for `O=C(O)Cc1ccc(Cl)cc1` is 95 % of control

T/C for `O=C(Nc1ccc(Cl)cc1[N+](=O)[O-])Oc1ccc(-c2ccccc2)cc1Cl` is 94 % of control

T/C for `COc1ccc(OC)c(NC(=O)c2ccc(Cl)cc2)c1` is 97 % of control

T/C for `CC(C)(C)NC(=O)NC1CCCCC1` is 98 % of control

T/C for `CCOC(=O)N1CCc2nc3ccc(Cl)cc3cc21` is 93 % of control

T/C for `Cc1cc(Cl)ccc1NC(=O)Oc1cc(C)c(Cl)c(C)c1Cl` is 97 % of control

T/C for `Nc1ccnc2snnc12` is 98 % of control

T/C for CCCCCCCCNC(C)C1=C(O)c2ccccc2C(=O)C1=O (centres undefined) is 86 % of control

T/C for `CCc1cc(C(C)(C)C)c(O)c(C(C)(C)C)c1` is 102 % of control

T/C for `CC(C)=NOCCCCON=C(C)C` is 100 % of control

T/C for CCCCCCC(C)CCCC (centres undefined) is 91 % of control

T/C for `CSc1ccc(NC(=O)Oc2ccc(C(=O)OCc3ccccc3)cc2)cc1` is 97 % of control

====

In this section, each of the compounds is paired with its reported T/C.
Test system: L1210 leukemia ip in BDF1 mice, survival T/C
MEASUREMENT_NOTES: NCI In Vivo Anticancer Drug Screen. Data for tumor model L1210 Leukemia (intraperitoneal) in B6D2F1 (BDF1) mice
DETAILS: endpoint: mean survival time; dose: 100.0 mg/kg/injection; schedule: Q01DX001 (ip); vehicle: saline with Tween-80; higher = longer survival
Toxic doses and inconclusive results are not listed.

Below, 5 compounds whose answers are already recorded.
CC(C)(C)NC(=O)NC1CCCCC1 ... 95 % of control
CC(=O)/C(=C\N(C)C)C(=O)Nc1ccccn1 ... 98 % of control
CCCN(CCC)/N=N/c1nc[nH]c1C(N)=O ... 95 % of control
CC(C)(C)NC(=O)C(Cl)Cl ... 88 % of control
CCOC(=O)N1CCc2nc3ccc(Cl)cc3cc21 ... 95 % of control

T/C for `COc1cc(C=O)ccc1OC(=O)Nc1cc(Cl)ccc1C` is 92 % of control

T/C for `CCCCCOc1nccc(N)n1` is 95 % of control

T/C for C=CCCCCCCCCCC(CCCCC)C(=O)O (stereo not given) is 100 % of control

T/C for CCCCCCC(C)CCCC (stereo not given) is 94 % of control

T/C for `CSc1ncnc2c1ncn2-n1cccc1` is 104 % of control

T/C for `CCOC(=O)c1ccc(N)cc1` is 105 % of control

T/C for CC(=O)OC12CCC34CCC5(CCC(OC(C)=O)(O1)C5C32)O4 (stereo not given) is 105 % of control

T/C for `O=c1cc(NCc2cccc(Cl)c2)[nH]c(=O)[nH]1` is 91 % of control

T/C for `COC(=O)C1=C(O)C(=O)N(c2ccccc2)C1` is 88 % of control

T/C for Nc1nc(SCc2ccccc2)c2nnn(C3OC(CO)C(O)C3O)c2n1 (stereo not given) is 101 % of control
